molecular target: CYP1A1 (Mus musculus, UniProt P00184); assay: Induction of CYP1A1 activity in mouse Hepa-1c1c7 cells assessed as induction ratio at 0.05 uM after 48 hrs by EROD assay relative to control; type: ADME, cell-based
Sequence (P00184 whole entry): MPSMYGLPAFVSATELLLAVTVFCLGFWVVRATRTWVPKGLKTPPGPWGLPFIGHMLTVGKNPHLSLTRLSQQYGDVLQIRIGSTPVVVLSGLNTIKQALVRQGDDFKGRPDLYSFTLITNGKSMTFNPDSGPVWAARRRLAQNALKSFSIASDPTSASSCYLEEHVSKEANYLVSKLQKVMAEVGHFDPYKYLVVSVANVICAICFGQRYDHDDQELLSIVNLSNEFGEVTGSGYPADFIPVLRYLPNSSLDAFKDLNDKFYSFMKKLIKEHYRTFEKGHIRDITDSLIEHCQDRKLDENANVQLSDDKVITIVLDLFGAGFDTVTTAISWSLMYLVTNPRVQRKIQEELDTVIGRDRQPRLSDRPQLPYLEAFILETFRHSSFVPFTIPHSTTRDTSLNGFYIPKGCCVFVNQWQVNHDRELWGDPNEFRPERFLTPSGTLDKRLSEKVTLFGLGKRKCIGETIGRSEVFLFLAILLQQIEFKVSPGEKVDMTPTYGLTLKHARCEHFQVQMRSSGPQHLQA
Can you tell me fold induction at 48 h, 0.05 µM for the items I'm about to list?
One number for each entry.

Some solved cases for reference:
• COc1ccc(OC)c(/C=C2/C(=O)Nc3ccccc32)c1 = 3.08
• O=C1Nc2cc(Cl)ccc2/C1=C\c1cccc(C(F)(F)F)c1 = 2.4

// fold induction at 48 h, 0.05 µM lookup, compound = O=C1Nc2cc(F)ccc2/C1=C\c1cccc(C(F)(F)F)c1 , result: 1.23

====

Can you tell me selectivity ratio for the items I'm about to list?
test: Selectivity ratio of IC50 for human CCL186 cells to IC50 for human HCT116 cells; type: ADME, cell-based, HCT-116; conditions: CCL186 cells and HCT116 cells, read-out: Ratio IC50

Some solved cases for reference:
• COc1ccc2c(c1)NC(=O)/C2=C/c1ccc(OC)c(O)c1 = 1.4
• O=C1Nc2cc(F)ccc2/C1=C\c1cccc(C(F)(F)F)c1 = 0.8
• COc1ccc2c(c1)NC(=O)/C2=C/c1cccc(C(F)(F)F)c1 = 1.4

For the 2 molecules below, give their selectivity ratio values.
1. COc1cc(/C=C2/C(=O)Nc3ccccc32)cc(OC)c1
2. COc1ccc(/C=C2/C(=O)Nc3ccccc32)c(OC)c1

[2.2, 1.8]

====

experiment: Ratio of induction of NQO1 activity to induction of CYP1 activity in mouse Hepa-1c1c7 cells at 5 nM after 48 hrs
measured metric: Ratio
One number for each entry.

Some solved cases for reference:
- O=C1Nc2cc(C(F)(F)F)ccc2/C1=C1\C(=O)Nc2ccc(F)cc21: 0.83
- O=C1Nc2cc(C(F)(F)F)ccc2/C1=C1\C(=O)Nc2ccc(Cl)cc21: 0.92
- O=C1Nc2ccccc2/C1=C1\C(=O)Nc2cc(C(F)(F)F)ccc21: 0.99
- O=C1Nc2ccccc2/C1=C1\C(=O)Nc2cc(F)ccc21: 0.93

Below: the item to evaluate.
// Ratio lookup, compound = O=C1Nc2ccccc2/C1=C1\C(=O)Nc2ccc(Cl)cc21 , result: 1.05

====

molecular target: NAD(P)H dehydrogenase [quinone] 1 (Mus musculus); assay: Induction of NQO1 activity in mouse Hepa-1c1c7 cells assessed as induction ratio at 2.5 uM after 48 hrs by MTT assay relative to control; format: cell-based
Is Ratio at least 4? Then 1 (yes). If not, 0 (no).

Field: example entries. Status: answers known.
- COc1cccc(/C=C2/C(=O)Nc3ccc(Cl)cc32)c1: 1 (yes)
- O=C1Nc2ccccc2/C1=C\c1ccc(F)cc1Cl: 0 (no)

Please indicate if the recorded Ratio for O=C1Nc2ccccc2/C1=C\c1ccc(Cl)cc1 meets or exceeds 4.
0 (no)

Please indicate if the recorded Ratio for O=C1Nc2ccccc2/C1=C\c1ccc2ccccc2c1 meets or exceeds 4.
1 (yes)

Please indicate if the recorded Ratio for COc1ccc(/C=C2/C(=O)Nc3ccccc32)c(O)c1 meets or exceeds 4.
0 (no)

====

Can you tell me IC50 for the items I'm about to list?
test: Cytotoxicity against mouse Hepa-1c1c7 cells after 48 hrs by MTT assay; type: cell-based; settings: hepa-1c1c7, 48 h

Some solved cases for reference:
* O=C1Nc2ccccc2/C1=C\c1c[nH]c2ccccc12 | > 25 µM
* O=C1Nc2ccccc2/C1=C\c1ccccc1O | > 25 µM
* O=C1Nc2ccccc2/C1=C1\C(=O)Nc2ccccc21 | > 25 µM
* COc1cc(/C=C2/C(=O)Nc3ccccc32)cc(OC)c1OC | > 25 µM
* O=C1Nc2ccccc2/C1=C\c1ccccc1C(F)(F)F | > 25 µM
* O=C1Nc2ccccc2/C1=C\c1ccc2ccccc2c1 | > 25 µM

For the 6 compounds below, give their IC50 values.
1. COc1ccc2c(c1)NC(=O)/C2=C/c1ccc(OC)c(O)c1
2. COc1cccc(CC2C(=O)Nc3ccccc32)c1 (stereo not given)
3. Cc1ccc(/C=C2/C(=O)Nc3ccccc32)cc1
4. O=C1Nc2ccccc2/C1=C1\C(=O)Nc2cc(Cl)ccc21
5. O=C1Nc2ccccc2/C1=C\c1cccc(O)c1
6. COc1cccc(/C=C2/C(=O)N(C)c3ccccc32)c1

1. 9.8 µM
2. > 25 µM
3. > 25 µM
4. > 25 µM
5. > 25 µM
6. > 25 µM

The values you see were collected from ChEMBL document CHEMBL1153905.
